The measurements presented in this section are drawn from paper PMC10539501.

Biological target: pepsin (Sus scrofa)
Sequence (P00791 60-385): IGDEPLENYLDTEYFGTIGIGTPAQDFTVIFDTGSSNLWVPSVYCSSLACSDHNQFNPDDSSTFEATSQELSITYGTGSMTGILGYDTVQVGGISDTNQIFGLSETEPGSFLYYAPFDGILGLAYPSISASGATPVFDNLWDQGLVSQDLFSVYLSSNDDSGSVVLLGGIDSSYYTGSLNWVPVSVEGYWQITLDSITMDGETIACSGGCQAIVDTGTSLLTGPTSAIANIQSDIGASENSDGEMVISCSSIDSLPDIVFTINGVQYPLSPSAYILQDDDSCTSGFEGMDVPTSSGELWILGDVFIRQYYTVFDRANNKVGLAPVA
Experiment: in vitro
Settings: simulated gastric fluid, pH 1.2
Starred links: 1 amine or outer side, 2 acyl side, 3 side chain; linkers in the order of their positions; H or OH if unused. Non-standard residues stand in square brackets, D forms with d. Residues, ends and D or L forms follow the SMILES beside them. X2 = CC(C)C[C@H](NC(=S)[C@@H](CC(C)C)N[*:1])C(=O)[*:2]; X4 = CC(C)C[C@H](N[*:1])C(=S)N1CCC[C@@H]1C(=O)[*:2]; NMeL = CN[C@@H](CC(C)C)C(=O)O
Quantity measured: remaining at 10 min (%)
Number only, in %; omit the unit.

Form: molecule = CC(C)C[C@@H]1NC(=O)[C@H](Cc2ccc(O)cc2)NC(=O)[C@H]2CCCN2C(=O)[C@H](CC(C)C)NC(=O)[C@H](CC(C)C)NC(=S)[C@@H](CC(C)C)NC1=O [10a] (cyclo(L[dP]YL[X2])) ; remaining at 10 min = 74

// remaining at 10 min lookup, molecule = CC(C)C[C@@H]1NC(=O)[C@H](Cc2ccc(O)cc2)NC(=O)[C@H]2CCCN2C(=S)[C@H](CC(C)C)NC(=O)[C@H](CC(C)C)NC(=O)[C@@H](CC(C)C)NC1=O [10c] (cyclo(L[dL]L[X4]Y)) , result: 68

Just so you know, measured remaining at 10 min for CC(C)C[C@@H]1NC(=O)[C@H](Cc2ccc(O)cc2)NC(=O)[C@H]2CCCN2C(=O)[C@H](CC(C)C)NC(=O)[C@H](CC(C)C)N(C)C(=O)[C@@H](CC(C)C)NC1=O [10h] (cyclo(L[dL][NMeL]L[dP]Y)) came out at 89

----------
Test: in vivo
Details: male, Wistar, rat, po, 10 mg/kg
Starred links: 1 amine or outer side, 2 acyl side, 3 side chain; linkers in the order of their positions; H or OH if unused. Non-standard residues stand in square brackets, D forms with d. Residues, ends and D or L forms follow the SMILES beside them. X1 = CC(C)C[C@H](NC(=S)[C@H](Cc1ccc(O)cc1)N[*:1])C(=O)[*:2]; X2 = CC(C)C[C@H](NC(=S)[C@@H](CC(C)C)N[*:1])C(=O)[*:2]; X3 = CC(C)C[C@H](N[*:1])C(=S)N[C@H](CC(C)C)C(=O)[*:2]; NMeL = CN[C@@H](CC(C)C)C(=O)O
Quantity measured: AUC(0-t) (ng·h/mL)
Answer in ng·h/mL, number only, no unit symbol.

The reported value for CC(C)C[C@@H]1NC(=O)[C@@H](CC(C)C)NC(=S)[C@H](CC(C)C)NC(=O)[C@H](Cc2ccc(O)cc2)NC(=O)[C@H]2CCCN2C(=O)[C@H](CC(C)C)NC1=O [10f] (cyclo(LL[dP]Y[X3])) in terms of AUC(0-t) is 121

The compound listed as CC(C)C[C@@H]1NC(=O)[C@@H](CC(C)C)NC(=O)[C@H](CC(C)C)NC(=S)[C@H](Cc2ccc(O)cc2)NC(=O)[C@H]2CCCN2C(=O)[C@H](CC(C)C)NC1=O [10e] (cyclo(LL[dP][X1][dL])) has a reported AUC(0-t) of 360

Reported AUC(0-t) ( CC(C)C[C@@H]1NC(=O)[C@H](Cc2ccc(O)cc2)NC(=O)[C@H]2CCCN2C(=O)[C@H](CC(C)C)NC(=O)[C@H](CC(C)C)NC(=S)[C@@H](CC(C)C)NC1=O [10a] (cyclo(L[dP]YL[X2])) ) = 26.9

For CC(C)C[C@@H]1NC(=O)[C@H](Cc2ccc(O)cc2)NC(=O)[C@H]2CCCN2C(=O)[C@H](CC(C)C)NC(=O)[C@H](CC(C)C)NC(=O)[C@@H](CC(C)C)NC1=O [compound 10, cyclo(-D-Leu^1-Leu-Leu-D-Pro-Tyr-Leu^6-)] (cyclo(LL[dP]YL[dL])) the compound record lists AUC(0-t) as 0.9

Lookup result for CC(C)C[C@@H]1NC(=O)[C@H](Cc2ccc(O)cc2)NC(=O)[C@H]2CCCN2C(=O)[C@H](CC(C)C)NC(=O)[C@H](CC(C)C)N(C)C(=O)[C@@H](CC(C)C)NC1=O [10h] (cyclo(L[dL][NMeL]L[dP]Y)) ; measured AUC(0-t): 25.9

For CC(C)C[C@@H]1NC(=O)[C@@H](CC(C)C)NC(=O)[C@H](CC(C)C)N(C)C(=O)[C@H](Cc2ccc(O)cc2)NC(=O)[C@H]2CCCN2C(=O)[C@H](CC(C)C)NC1=O [10k] (cyclo(LL[dP]Y[NMeL][dL])) the compound record lists AUC(0-t) as 345

----------
For each entry below, report its remaining at 1 h value.
Test: in vitro
Settings: pig, simulated intestinal fluid
Non-standard residues stand in square brackets, D forms with d. Residues, ends and D or L forms follow the SMILES beside them. NMeL = CN[C@@H](CC(C)C)C(=O)O
Output spec: scalar in %, unitless text.

Query CC(C)C[C@@H]1NC(=O)[C@H](Cc2ccc(O)cc2)NC(=O)[C@H]2CCCN2C(=O)[C@H](CC(C)C)N(C)C(=O)[C@H](CC(C)C)NC(=O)[C@@H](CC(C)C)NC1=O [10i] (cyclo(L[NMeL][dP]YL[dL])) yields remaining at 1 h of 68

The compound listed as CC(C)C[C@@H]1NC(=O)[C@H](Cc2ccc(O)cc2)NC(=O)[C@H]2CCCN2C(=O)[C@H](CC(C)C)NC(=O)[C@H](CC(C)C)NC(=O)[C@@H](CC(C)C)NC1=O [compound 10, cyclo(-D-Leu^1-Leu-Leu-D-Pro-Tyr-Leu^6-)] (cyclo(LL[dP]YL[dL])) shows remaining at 1 h equal to 30.7

----------
For each record, write down the corresponding AUC(0-t).
Experiment: in vivo
Details: male, Wistar, rat, iv
Starred links: 1 amine or outer side, 2 acyl side, 3 side chain; linkers in the order of their positions; H or OH if unused. Non-standard residues stand in square brackets, D forms with d. Residues, ends and D or L forms follow the SMILES beside them. X1 = CC(C)C[C@H](NC(=S)[C@H](Cc1ccc(O)cc1)N[*:1])C(=O)[*:2]; X2 = CC(C)C[C@H](NC(=S)[C@@H](CC(C)C)N[*:1])C(=O)[*:2]; X3 = CC(C)C[C@H](N[*:1])C(=S)N[C@H](CC(C)C)C(=O)[*:2]; NMeL = CN[C@@H](CC(C)C)C(=O)O
Dear colleague, please return just the value in ng·h/mL, with no unit written.

The reported AUC(0-t) of the molecule CC(C)C[C@@H]1NC(=O)[C@@H](CC(C)C)NC(=O)[C@H](CC(C)C)N(C)C(=O)[C@H](Cc2ccc(O)cc2)NC(=O)[C@H]2CCCN2C(=O)[C@H](CC(C)C)NC1=O [10k] (cyclo(LL[dP]Y[NMeL][dL])) was 510

The molecule listed as CC(C)C[C@@H]1NC(=O)[C@@H](CC(C)C)NC(=S)[C@H](CC(C)C)NC(=O)[C@H](Cc2ccc(O)cc2)NC(=O)[C@H]2CCCN2C(=O)[C@H](CC(C)C)NC1=O [10f] (cyclo(LL[dP]Y[X3])) shows AUC(0-t) equal to 390

According to the records, this molecule CC(C)C[C@@H]1NC(=O)[C@H](Cc2ccc(O)cc2)NC(=O)[C@H]2CCCN2C(=O)[C@H](CC(C)C)NC(=O)[C@H](CC(C)C)N(C)C(=O)[C@@H](CC(C)C)NC1=O [10h] (cyclo(L[dL][NMeL]L[dP]Y)) displays AUC(0-t) of 212

response.value for CC(C)C[C@@H]1NC(=O)[C@@H](CC(C)C)NC(=O)[C@H](CC(C)C)NC(=S)[C@H](Cc2ccc(O)cc2)NC(=O)[C@H]2CCCN2C(=O)[C@H](CC(C)C)NC1=O [10e] (cyclo(LL[dP][X1][dL])) (field: AUC(0-t)) = 2280

CC(C)C[C@@H]1NC(=O)[C@H](Cc2ccc(O)cc2)NC(=O)[C@H]2CCCN2C(=O)[C@H](CC(C)C)NC(=O)[C@H](CC(C)C)NC(=O)[C@@H](CC(C)C)NC1=O [compound 10, cyclo(-D-Leu^1-Leu-Leu-D-Pro-Tyr-Leu^6-)] (cyclo(LL[dP]YL[dL])) has a reported AUC(0-t) of 548

The value of AUC(0-t) measured for the molecule CC(C)C[C@@H]1NC(=O)[C@H](Cc2ccc(O)cc2)NC(=O)[C@H]2CCCN2C(=O)[C@H](CC(C)C)NC(=O)[C@H](CC(C)C)NC(=S)[C@@H](CC(C)C)NC1=O [10a] (cyclo(L[dP]YL[X2])) turned out to be 146

----------
Assay: PAMPA passive permeability;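 also: passive permeability across an artificial membrane in 96-well pre-coated PAMPA plates, which lack transporters and efflux systems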
Assay type: in vitro ADME
Starred links: 1 amine or outer side, 2 acyl side, 3 side chain; linkers in the order of their positions; H or OH if unused. Non-standard residues stand in square brackets, D forms with d. Residues, ends and D or L forms follow the SMILES beside them. X1 = CC(C)C[C@H](NC(=S)[C@H](Cc1ccc(O)cc1)N[*:1])C(=O)[*:2]; X6 = O=C([C@H](Cc1ccc(O)cc1)NC(=S)[C@H]1CCCN1[*:1])[*:2]; X11 = CC[C@H](C)[C@H](N[*:1])C(=S)N[C@@H](C)C(=O)[*:2]; X3 = CC(C)C[C@H](N[*:1])C(=S)N[C@H](CC(C)C)C(=O)[*:2]; X5 = CC(C)C[C@H](NC(=S)[C@H](CC(C)C)N[*:1])C(=O)[*:2]; X4 = CC(C)C[C@H](N[*:1])C(=S)N1CCC[C@@H]1C(=O)[*:2]
Please note: Pe Avg exactly at 4 ×10⁻⁶ cm/s is 0. Only values below 4 ×10⁻⁶ cm/s get 1.

Query :: Regarding CC(C)C[C@@H]1NC(=O)[C@H](Cc2ccc(O)cc2)NC(=O)[C@H]2CCCN2C(=O)[C@H](CC(C)C)NC(=S)[C@H](CC(C)C)NC(=O)[C@@H](CC(C)C)NC1=O [10b] (cyclo(L[dL][X5][dP]Y)) , kindly confirm whether its Pe Avg is beneath 4 ×10⁻⁶ cm/s.
Result :: 0

Query :: Does this compound meet the criterion Pe Avg < 4 ×10⁻⁶ cm/s? CC(C)C[C@@H]1NC(=O)[C@@H](CC(C)C)NC(=O)[C@H](CC(C)C)NC(=S)[C@H](Cc2ccc(O)cc2)NC(=O)[C@H]2CCCN2C(=O)[C@H](CC(C)C)NC1=O [10e] (cyclo(LL[dP][X1][dL]))
Result :: 0

Query :: # TODO verify Pe Avg < 4 ×10⁻⁶ cm/s strictly for this compound: CC[C@H](C)[C@@H]1NC(=O)[C@@H]2CCCN2C(=O)[C@H](Cc2ccccc2)NC(=O)[C@H](C)NC(=O)[C@H](C)NC(=S)[C@H]([C@@H](C)CC)NC(=O)[C@@H]2CCCN2C1=O [11a] (cyclo(AFPIP[X11]))
Result :: 0

Query :: Confirm or reject: Pe Avg of CC(C)C[C@@H]1NC(=O)[C@@H](CC(C)C)NC(=S)[C@H](CC(C)C)NC(=O)[C@H](Cc2ccc(O)cc2)NC(=O)[C@H]2CCCN2C(=O)[C@H](CC(C)C)NC1=O [10f] (cyclo(LL[dP]Y[X3])) lies strictly below 4 ×10⁻⁶ cm/s
Result :: 0

Query :: Dear reviewer, please state whether CC(C)C[C@@H]1NC(=O)[C@H](Cc2ccc(O)cc2)NC(=O)[C@H]2CCCN2C(=S)[C@H](CC(C)C)NC(=O)[C@H](CC(C)C)NC(=O)[C@@H](CC(C)C)NC1=O [10c] (cyclo(L[dL]L[X4]Y)) has Pe Avg strictly beneath 4 ×10⁻⁶ cm/s.
Result :: 1

Query :: Bench note: check whether CC(C)C[C@@H]1NC(=O)[C@H](Cc2ccc(O)cc2)NC(=S)[C@H]2CCCN2C(=O)[C@H](CC(C)C)NC(=O)[C@H](CC(C)C)NC(=O)[C@@H](CC(C)C)NC1=O [10d] (cyclo(LL[X6]L[dL])) shows Pe Avg below 4 ×10⁻⁶ cm/s
Result :: 0
